# Test system: excised wheat leaf tips
# TEST_PROTOCOL: Senescence inhibition on winter wheat leaf segments (chlorophyll retention)
# Set-up: species or system Triticum aestivum cv. Hereward
# TEST_PARAMETERS: Triticum aestivum, foliar; retention of chlorophyll in excised wheat leaf tips, 96 h in the dark, at concentration with highest activity; read-out: Activity (%) [10^-4mol.l^-1 KTHP = 100%]
Reported Emax values follow for various molecules
Give the quantity in %, number only.

Returns the measured Emax for the input molecule. Input: Fc1nc(NCc2ccccc2)c2ncn(C3CCCCO3)c2n1 (centres unmarked)
110

Value lookup for Emax; key = Oc1cccc(CNc2nc(F)nc3c2ncn3C2CCCCO2)c1 (centres unmarked)
128

Param item = COc1ccc(CNc2nc(F)nc3c2ncn3C2CCCCO2)cc1 (centres unmarked) ; retrieve measured Emax.
155
